# System: mice with bleomycin-induced pulmonary fibrosis
# Assay info: Pulmonary function (Flexivent) in mice with pulmonary fibrosis
# Type: in vivo, C57BL/6 mice
# Test parameters: Table 3 groups, 2 mg/kg i.p.; 28th day after model construction
Bridge positions count the residues as written; N and C are the ends. Square brackets hold non-standard residues; d marks the D form. Peptide text beside a SMILES is read from it. S5 = C=CCCC[C@](C)(N)C(=O)O
Experimental readout: Dynamic resistance (cmH2O · s/Ml)
Report as a plain number; the unit cmH2O · s/Ml is understood.

compound="CSCC[C@@H]1NC(=O)[C@H](CC(C)C)NC(=O)[C@@](C)(N)CCCC=CCCC[C@@](C)(C(=O)N[C@@H](Cc2ccccc2)C(=O)N[C@H](C(=O)N[C@@H](CS)C(=O)N[C@@H](C)C(=O)N[C@@H](CCCCN)C(=O)N[C@@H](CCCCN)C(=O)N[C@@H](CC(C)C)C(=O)N[C@@H](CCCCN)C(=O)N[C@@H](CCCCN)C(=O)N[C@@H](CCCNC(=N)N)C(=O)O)[C@@H](C)O)NC(=O)[C@H](C)NC1=O [S1] (H-[S5]LMA[S5]FTCAKKLKKR-OH; staple 1-5; N-terminus and C-terminus assumed)" observed_value=1.15
compound="CSCC[C@H](NC(=O)[C@H](CC(C)C)NC(=O)[C@@H](N)Cc1c[nH]cn1)C(=O)N[C@@H](C)C(=O)N[C@@H](CS)C(=O)N[C@@]1(C)CCCC=CCCC[C@@](C)(C(=O)N[C@@H](CCCCN)C(=O)N[C@@H](CC(C)C)C(=O)N[C@@H](CCCCN)C(=O)N[C@@H](CCCCN)C(=O)N[C@@H](CCCNC(=N)N)C(=O)O)NC(=O)[C@H](C)NC(=O)[C@H](CS)NC(=O)[C@H]([C@@H](C)O)NC1=O [S6] (H-HLMAC[S5]TCA[S5]KLKKR-OH; staple 6-10; N-terminus and C-terminus assumed)" observed_value=1.067
compound="CSCC[C@H](NC(=O)[C@H](CC(C)C)NC(=O)[C@@H](N)Cc1c[nH]cn1)C(=O)N[C@@H](C)C(=O)N[C@@H](CS)C(=O)N[C@@H](Cc1ccccc1)C(=O)N[C@H](C(=O)N[C@@H](CS)C(=O)N[C@@H](C)C(=O)N[C@@H](CCCCN)C(=O)N[C@@H](CCCCN)C(=O)N[C@@H](CC(C)C)C(=O)N[C@@H](CCCCN)C(=O)N[C@@H](CCCCN)C(=O)N[C@@H](CCCNC(=N)N)C(=O)O)[C@@H](C)O [MR2] (H-HLMACFTCAKKLKKR-OH; N-terminus and C-terminus assumed)" observed_value=1.775
compound="CC(C)C[C@H](NC(=O)[C@H](CCCCN)NC(=O)[C@H](CCCCN)NC(=O)[C@H](C)NC(=O)[C@H](CS)NC(=O)[C@]1(C)CCCC=CCCC[C@](C)(NC(=O)[C@H](CC(C)C)NC(=O)[C@@H](N)Cc2c[nH]cn2)C(=O)N[C@@H](C)C(=O)N[C@@H](CS)C(=O)N[C@@H](Cc2ccccc2)C(=O)N1)C(=O)N[C@@H](CCCCN)C(=O)N[C@@H](CCCCN)C(=O)N[C@@H](CCCNC(=N)N)C(=O)O [S3] (H-HL[S5]ACF[S5]CAKKLKKR-OH; staple 3-7; N-terminus and C-terminus assumed)" observed_value=1.143

Next:
[Q] Please look up its Dynamic resistance (cmH2O · s/Ml): CSCC[C@@H]1NC(=O)[C@@](C)(NC(=O)[C@@H](N)Cc2c[nH]cn2)CCCC=CCCC[C@@](C)(C(=O)N[C@H](C(=O)N[C@@H](CS)C(=O)N[C@@H](C)C(=O)N[C@@H](CCCCN)C(=O)N[C@@H](CCCCN)C(=O)N[C@@H](CC(C)C)C(=O)N[C@@H](CCCCN)C(=O)N[C@@H](CCCCN)C(=O)N[C@@H](CCCNC(=N)N)C(=O)O)[C@@H](C)O)NC(=O)[C@H](CS)NC(=O)[C@H](C)NC1=O [S2] (H-H[S5]MAC[S5]TCAKKLKKR-OH; staple 2-6; N-terminus and C-terminus assumed)
[A] 1.25

Sourced from patent US20210179680A1
